Tested on: Saccharomyces cerevisiae BY4741 SeMeCo community
assay procedure: z-score of subpopulation abundance vs DMSO median, subpopulation auxotrophic for U; higher = larger share of this subpopulation than in DMSO controls
conditions: 10 µM; 24 h; SM minimal medium; subpopulation (auxotrophy): U
Counter-ions that a name gives are not always drawn.
experimental endpoint: z-score of subpopulation abundance

# compound, reported
measured = [
    ("CC1(C)S[C@@H]2[C@H](NC(=O)C(C(=O)O)c3ccccc3)C(=O)N2[C@H]1C(=O)O (some centres undefined) [Carbenicillin disodium]", -0.46),
    ("Cc1ncc([N+](=O)[O-])n1CCOC(=O)c1ccccc1 [Metronidazole Benzoate]", -0.16),
    ("CC[C@H](C)[C@H](N)C1=N[C@H](C(=O)N[C@@H](CC(C)C)C(=O)N[C@H](CCC(=O)O)C(=O)N[C@H](C(=O)N[C@H]2CCCCNC(=O)[C@H](CC(N)=O)NC(=O)[C@@H](CC(=O)O)NC(=O)[C@H](Cc3cnc[nH]3)NC(=O)[C@@H](Cc3ccccc3)NC(=O)[C@H]([C@@H](C)CC)NC(=O)[C@@H](CCCN)NC2=O)[C@@H](C)CC)CS1", 0.29),
    ("Nc1c(CC(=O)O)cccc1C(=O)c1ccccc1 [Amfenac Sodium Monohydrate]", 0.11),
    ("CCN(CC)CCNC(=O)c1cc(Cl)c(N)cc1OC [Metoclopramide HCl]", -1.06),
    ("CCOc1cc(N)c([N+](=O)[O-])cc1C(=O)NC1CCN(CC2CC=CCC2)CC1 (centres undefined) [Cinitapride Hydrogen Tartrate]", 1.07),
    ("CO/N=C(\\C(=O)N[C@@H]1C(=O)N2C(C(=O)O)=C(Cn3ccc(=N)n3CCO)CS[C@H]12)c1csc(N)n1 [Cefoselis Sulfate]", 0.03),
    ("CC1(C)S[C@@H]2[C@H](NC(=O)[C@H](N)c3ccccc3)C(=O)N2[C@H]1C(=O)O [Ampicillin Trihydrate]", -0.13),
    ("COCCOC(=O)C1=C(C)NC(C)=C(C(=O)OC(C)C)C1c1cccc([N+](=O)[O-])c1 (centres undefined)", 0.32),
    ("CCC(C)(C)c1ccc(CC(C)CN2C[C@@H](C)O[C@@H](C)C2)cc1 (some centres undefined) [Amorolfine HCl]", 1.83),
    ("O=C1CN(/N=C/c2ccc(-c3ccc([N+](=O)[O-])cc3)o2)C(=O)N1 [Dantrolene sodium]", -3.65),
    ("O=C(NCCO[N+](=O)[O-])c1cccnc1", -0.31),
    ("O=C(Nc1ccc(Oc2ccc(Cl)cc2)c(Cl)c1)c1cc(I)cc(I)c1O [Rafoxanide]", -1.44),
    ("CCCCNC(=O)NS(=O)(=O)c1ccc(C)cc1 [Tolbutamide]", 0.61),
    ("CC(C)(C)C(=O)C(Oc1ccc(Cl)cc1)n1ccnc1 (centres undefined)", -1.3),
    ("CCOC(=O)C1=C(C)NC(C)=C(C(=O)OCC)C1c1ccccc1/C=C/C(=O)OC(C)(C)C", -3.36),
    ("CN1C2CCC1CC(OC(=O)C(O)c1ccccc1)C2 (centres undefined) [Homatropine Bromide]", 1.49),
    ("COc1ccccc1OCC(O)CN1CCN(CC(=O)Nc2c(C)cccc2C)CC1 (centres undefined) [Ranolazine 2HCl]", -0.29),
    ("O=C(Nc1cc(Cl)cc(Cl)c1O)c1c(O)c(Cl)cc(Cl)c1Cl [Oxyclozanide]", -0.91),
    ("Cc1nc(C)c(Cl)c(O)c1Cl", -0.09),
    ("COc1ccc2cc3[n+](cc2c1OC)CCc1cc2c(cc1-3)OCO2 [Berberine chloride]", -0.13),
    ("CCOc1cc(NC(C)=O)ccc1C(=O)OC [Ethopabate]", -0.35),
    ("C#C[C@]1(O)CC[C@H]2[C@@H]3CCC4=CCCC[C@@H]4[C@H]3C(=C)C[C@@]21CC", -0.38),
    ("C[C@]12CC[C@@H]3c4ccc(O)cc4CC[C@H]3[C@@H]1CC[C@@H]2OC(=O)CCC1CCCC1 [Estradiol Cypionate]", 0.71),
    ("COCCCC/C(=N\\OCCN)c1ccc(C(F)(F)F)cc1 [Fluvoxamine maleate]", -0.51),
    ("CCCCCOc1ccc(-c2ccc(-c3ccc(C(=O)N[C@H]4C[C@@H](O)[C@@H](O)NC(=O)[C@@H]5[C@@H](O)[C@@H](C)CN5C(=O)[C@H]([C@@H](C)O)NC(=O)[C@H]([C@H](O)[C@@H](O)c5ccc(O)cc5)NC(=O)[C@@H]5C[C@@H](O)CN5C(=O)[C@H]([C@@H](C)O)NC4=O)cc3)cc2)cc1", 0.13),
    ("CCN(CC)CCNC(=O)c1cc(Cl)c(N)cc1OC [Metoclopramide]", 1.49),
    ("CCOC(=O)OC(C)OC1=C(C(=O)Nc2ccccn2)N(C)S(=O)(=O)c2ccccc21 (centres undefined)", -0.79),
    ("C=C[C@]1(C)C[C@@H](OC(=O)CS[C@@H]2C[C@H]3CC[C@@H](C2)N3C)[C@]2(C)[C@H](C)CC[C@]3(CCC(=O)[C@H]32)[C@@H](C)[C@@H]1O", 0.79),
]
